# shrunken log2 fold change annotations
System: Escherichia coli TOP10;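 further: peptides expressed intracellularly from a pBAD plasmid library in pooled LB shake-flask culture, induced with 0.3% L-arabinose, DNA abundance read by NGS, three biological replicates, DESeq2 with apeglm shrinkage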
Experiment: shrunken log2 fold change of peptide-encoding DNA abundance (4.5 h post-induction vs induction); higher = less antimicrobial activity (less host growth inhibition)
Details: time post-induction: 4.5 h; library: site-saturation at positions 5, 18, 19, 20
Answer field: number only, no words.

Recorded shrunken log2 fold change, per entry:
RRIRIRPPRLPRPRPRPFYAPRP: -0.251
RRIRTRPPRLPRPRPRPQTDPRP: -0.466
RRIRIRPPRLPRPRPRPTSRPRP: -0.0459
RRIRWRPPRLPRPRPRPLCCPRP: 0.0117
RRIRMRPPRLPRPRPRPHMNPRP: -0.0129
RRIRNRPPRLPRPRPRPNRRPRP: -0.133

Consider the record given below.
Form field: shrunken log2 fold change recorded for "RRIRFRPPRLPRPRPRPWWNPRP" with Escherichia coli TOP10 (enter value) -0.26

The measured values listed here are drawn from the supplement of paper PMC9112550.
